Data provenance: paper PMC9352680

# TESTED_TARGET: T1, PUF4 RNA-binding domain (Saccharomyces cerevisiae, UniProt P25339 537-888)
# T1 sequence: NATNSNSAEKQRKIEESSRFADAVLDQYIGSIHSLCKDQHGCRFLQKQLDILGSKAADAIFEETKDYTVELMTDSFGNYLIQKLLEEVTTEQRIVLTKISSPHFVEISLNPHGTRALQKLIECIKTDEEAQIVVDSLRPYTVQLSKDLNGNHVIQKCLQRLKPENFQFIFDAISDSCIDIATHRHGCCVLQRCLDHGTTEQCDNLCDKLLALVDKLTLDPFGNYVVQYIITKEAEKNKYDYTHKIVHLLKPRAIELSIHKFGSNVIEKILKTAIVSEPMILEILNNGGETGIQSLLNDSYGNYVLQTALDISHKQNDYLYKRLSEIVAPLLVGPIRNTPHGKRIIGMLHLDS
# ASSAY_METHOD_TEXT: Mg; RNA-MaP; 20 mM Na-HEPES pH 7.4, 30 mM KOAc, 0.75 mM MgCl2, 0.1% Tween-20, 5% glycerol, 0.1 mg/mL BSA, 2 mM DTT; 25 C; 0.0125-409.6 nM protein
# STUDY_CONDITIONS: tags: N-His6-TEV cleaved; C-SNAP kept, Cy3B-labelled; label: tethered on chip by stalled RNA polymerase
Please go through the items and note down their Kd.
Give just the number in µM; leave the unit off.

Problem: Which Kd is reported for this binder? Ie_S2_P4E.1_K4.1_C4.1_H4.1_[+4CCTCT]_A4.1_F4.1_T4.1 (ssRNA) RNA: UUUGAUUAAUAUGAUAUCGUUCUUUCUUGUACCUCUUAUUAUUCUUUCUCGAUAUCAUAUUAAUCUUU
Solution: 0.00557

Problem: Given the binder UCUCUUUGUAUUAAUAUCUCUU (ssRNA) [Ia_S1_P5E.1_K5.1_C5.1_H5.1_A5.1_F5.1_[T8A]_T5.1] , what is its reported Kd?
Solution: 0.0094

Problem: Suppose we examine the binder Id_ii_S2_P3E.4_K3.3_C3.2_[T-1C]_H3.3_A3.1_F3.1_T3.2_[T9A]_[A10T] (ssRNA) RNA: UUUGAUUAAUAUGAUAUCGUUCUUUCUCCACACUAUAAUUUCUUUCUCGAUAUCAUAUUAAUCUUU ; what Kd value has been reported?
Solution: 1.89

Problem: Give the measured Kd of UCUCUUCUUGUAUAUCCCAUAUCUCUU (ssRNA) [Ie_S1_P3E.2_K3.1_C3.2_H3.1_A3.1_F3.1_[+7CCC]_T3.2] .
Solution: 0.0379

Problem: Consider the binder shown here: Id_ii_S2_P4E.2_K4.1_C4.2_[C-2T]_[T-1G]_H4.1_A4.1_F4.1_T4.2_[G10T]_[T11G] (ssRNA) RNA: UUUGAUUAAUAUGAUAUCGUUCUUUCUUGUGUAUAUUAUGUUCUUUCUCGAUAUCAUAUUAAUCUUU What is its recorded Kd?
Solution: 0.000416

Problem: Endpoint output: Kd of UCUCUUUGUAGCUUUCUCUU (ssRNA) [Ic_S1_P3E.1_K3.1_C3.1_H3.1_A3.1_[T5G]_[A6C]_F3.1_[A8T]_T3.1] . Value?
Solution: 0.296

Problem: Kd for Id_ii_S2_P5E.2_K5.1_C5.2_[C-2A]_H5.1_A5.1_F5.1_T5.2_[A12G] (ssRNA) RNA: UUUGAUUAAUAUGAUAUCGUUCUUUCUAUUGUAUUAUUAUGUUCUUUCUCGAUAUCAUAUUAAUCUUU ?
Solution: 0.00506

Problem: Item Id_ii_S2_P5E.3_K5.2_C5.2_[C-2T]_[T-1G]_H5.2_A5.1_F5.1_T5.2_[T11A] (ssRNA) RNA: UUUGAUUAAUAUGAUAUCGUUCUUUCUUGUAUAUUAUUAAAUUCUUUCUCGAUAUCAUAUUAAUCUUU has what recorded Kd?
Solution: 0.000435

Problem: Report Kd for UCUCUUUAUAUUCUUAUCUCUU (ssRNA) [Ib_S1_P5E.1_K5.1_C5.1_H5.1_[G2A]_A5.1_[A7C]_F5.1_T5.1] please.
Solution: 0.801
